Hello, the source for this data is ChEMBL document CHEMBL1932946, in case you need it.

test: Octanol-phosphate buffer partition coefficient, log P of the compound at 5 mg after 24 hrs by UV spectroscopic analysis; type: physicochemical
logP at 24 h values by entry
Reply: number alone, nothing else.

Example molecules with recorded logP at 24 h:
Smiles str: S=C(N/N=C/c1ccc(Oc2ccc(Br)cc2)cc1)Nc1ccccc1
logP at 24 h: 5.62
--
Smiles str: Fc1ccc(Oc2ccc(/C=N/NC(=S)Nc3ccccc3)cc2)cc1
logP at 24 h: 5.09
--
Smiles str: Cc1ccc(Oc2ccc(/C=N/NC(=S)Nc3ccccc3)cc2)cc1
logP at 24 h: 5.39
--
Smiles str: Cc1ccc(Oc2ccc(/C=N/NC(=S)Nc3ccc(F)cc3)cc2)cc1
logP at 24 h: 5.48
--
Smiles str: S=C(N/N=C/c1ccc(Oc2ccc3ccccc3c2)cc1)Nc1ccccc1
logP at 24 h: 6.07

Can you look up the measured logP at 24 h of `Fc1ccc(NC(=S)N/N=C/c2ccc(Oc3ccc(Br)cc3)cc2)cc1` for me?
5.88

And then `S=C(N/N=C/c1ccc(Oc2ccc3c(c2)OCO3)cc1)Nc1ccc(Br)cc1` , what is it?
5.52

Same read-out for `Cc1ccc(Oc2ccc(/C=N/NC(=S)Nc3ccc(Br)cc3)cc2)cc1` ?
6.17

Further, for `Fc1ccc(Oc2ccc(/C=N/NC(=S)Nc3ccc(Cl)cc3)cc2)cc1` ?
5.84

Consider next the molecule `O=[N+]([O-])c1ccc(Oc2ccc(/C=N/NC(=S)Nc3ccc(Cl)cc3)cc2)cc1` in the same way.
5.52

Param item: `Fc1ccc(NC(=S)N/N=C/c2ccc(Oc3ccc4ccccc4c3)cc2)cc1`
6.2

Same again, this time with `Fc1ccc(NC(=S)N/N=C/c2ccc(Oc3ccc(F)cc3)cc2)cc1`
5.19

###

Reported logP at 24 h by item:
assay: Octanol-phosphate buffer partition coefficient, log P of the compound at 5 mg after 24 hrs by UV spectroscopic analysis; assay type: physicochemical
Keep it simple and answer with nothing but the number.

As a guide, the following entries are already answered.
Smiles str: Cc1cc(Oc2ccc(/C=N/NC(=S)Nc3ccc(F)cc3)cc2)ccc1Cl
logP at 24 h: 6.07

Smiles str: O=[N+]([O-])c1ccc(Oc2ccc(/C=N/NC(=S)Nc3ccccc3)cc2)cc1
logP at 24 h: 4.95

Smiles str: Fc1ccc(NC(=S)N/N=C/c2ccc(Oc3ccc4c(c3)OCO4)cc2)cc1
logP at 24 h: 4.99

Smiles str: S=C(N/N=C/c1ccc(Oc2ccc(Br)cc2)cc1)Nc1ccc(Cl)cc1
logP at 24 h: 6.37

# get_value(readout='logP at 24 h', item= `Fc1ccc(NC(=S)N/N=C/c2ccc(Oc3ccccc3)cc2)cc1` )
5.09

Next record, please: `S=C(N/N=C/c1ccc(Oc2ccccc2)cc1)Nc1ccc(Br)cc1`
6.38

Please answer likewise for `S=C(N/N=C/c1ccc(Oc2ccccc2)cc1)Nc1ccc(Cl)cc1`
5.64

How about `S=C(N/N=C/c1ccc(Oc2ccc3c(c2)OCO3)cc1)Nc1ccc(Cl)cc1` ?
5.54

And the next one, `Cc1cc(Oc2ccc(/C=N/NC(=S)Nc3ccc(Br)cc3)cc2)ccc1Cl` ?
7.89

Record: `O=[N+]([O-])c1ccc(Oc2ccc(/C=N/NC(=S)Nc3ccc(Br)cc3)cc2)cc1`
5.68

And for `S=C(N/N=C/c1ccc(Oc2ccc(Cl)cc2)cc1)Nc1ccc(Cl)cc1` ?
6.2

What would you report for `Cc1cc(Oc2ccc(/C=N/NC(=S)Nc3ccc(Cl)cc3)cc2)ccc1Cl` ?
6.59
